Documented normalised cell number across a set of molecules
# test summary: differential killing of epithelial or mesenchymal cells, primary screen, imaging, PC-3E GFP, TEM4-18 mCherry, co-culture (AID 1345086);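 further: cells exposed to compound for 72 h before imaging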
# condition notes: imaging cell counts, measured here: mesenchymal TEM4-18 mCherry cell survival, at 1 µM
readout type: normalised cell number

[[record]]
molecule = "C#C[C@]1(O)CCC2C3CCc4cc(O)ccc4C3CC[C@@]21C (stereo not given in full)"
readout_type = "normalised cell number"
recorded_measurement = 1.07

[[record]]
molecule = "Nc1nc(F)nc2c1ncn2[C@@H]1O[C@H](COP(=O)(O)O)[C@@H](O)[C@@H]1O"
readout_type = "normalised cell number"
recorded_measurement = 0.92

[[record]]
molecule = "CCC[C@H]1Cc2cc3c(-c4c(O)cc(O)c5c(O)c6c(cc45)C[C@H](CCC)OC6=O)c(O)cc(O)c3c(O)c2C(=O)O1"
readout_type = "normalised cell number"
recorded_measurement = 0.77

[[record]]
molecule = "C=C1C(=O)OC(C(=O)OC)C1(O)CCCCCCCCC (stereo not given)"
readout_type = "normalised cell number"
recorded_measurement = 1.04

[[record]]
molecule = "COC(=O)[C@H](Cc1ccccc1)NC(=O)/C(=C1\\OC(=O)C(c2ccccc2)=C1O)c1ccccc1"
readout_type = "normalised cell number"
recorded_measurement = 0.9


* * *

# test summary: HepG2 cytotoxicity, primary screen, cytotoxicity control for P. falciparum antimalarial project, cell-based, ATP luminescence (AID 2303);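 further: 0% = DMSO wells and 100% = digitonin-killed cells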
# condition notes: HepG2 viability, 24-48 h, at 10 µM, stronger effect = higher value
readout type: inhibition (%)

[[record]]
compound = "CCOC(=O)c1ccc(NC(=O)Nc2ccc(-c3cccc(-c4nc5ccc(F)cc5[nH]4)c3)cc2)cc1"
recorded_measurement = 98

[[record]]
compound = "O=C(Nc1ccc(-c2nc3ccccc3[nH]2)cc1)c1ccc(N2CCCC2)c([N+](=O)[O-])c1"
recorded_measurement = 43

[[record]]
compound = "CCOC(=O)N(C)/N=C/[C@H](CCc1ccccc1)NC(=O)[C@H](CC(C)C)NC(=O)c1cc2cccc(OC)c2o1"
recorded_measurement = 2

[[record]]
compound = "CN(C)CCOc1ccc(-c2cc(-c3ccc(Cl)c(O)c3)c(-c3ccnc(N)n3)o2)cc1"
recorded_measurement = 43

[[record]]
compound = "COc1ccc(Nc2ncc3c(-c4cccc(NC(=O)Cc5ccc(O)cc5)c4)c[nH]c3n2)cc1OC"
recorded_measurement = 48

[[record]]
compound = "CCOC(=O)c1cccc(NC(=O)Nc2cccc(-c3ncc(OCCCN)c4c3nc(-c3nonc3N)n4CC)c2)c1"
recorded_measurement = 16

[[record]]
compound = "COc1ccc(CNC2CCN(C)CC2)cc1-c1ccc(S(=O)(=O)NCCN2CCCC2)s1"
recorded_measurement = 2

[[record]]
compound = "O=C(/C=C/c1ccc(C(F)(F)F)cc1)N1CCc2cc3nccc(N4CCN5CCC[C@H]5C4)c3cc21"
recorded_measurement = -7

[[record]]
compound = "COc1ccc2c(c1)C(C)(CCCN(C)C)C(=O)N2C (centres undefined)"
recorded_measurement = 8

[[record]]
compound = "Cc1cc(C(=O)Nc2ccc3c(ccn3C3CCCN(Cc4ccc(C(F)(F)F)cc4F)CC3)c2)no1 (centres undefined)"
recorded_measurement = 19

[[record]]
compound = "COC(=O)c1ccc2nc(-c3ccc(/C=C/C(=O)NCc4ccc(Cl)c(Cl)c4)cc3)[nH]c2c1"
recorded_measurement = 13

[[record]]
compound = "CC(C)(CNCCOc1ccc(Cl)cc1)c1nc(-c2ccc(Cl)c(O)c2)c(-c2ccnc(N)n2)[nH]1"
recorded_measurement = 45

[[record]]
compound = "COCCNCc1cccc(-c2ccc3c(Nc4ccc(Oc5ccccc5)cc4)ccnc3c2)c1"
recorded_measurement = 25

[[record]]
compound = "Cc1ccc(OCCCCONC(=O)c2ccccc2)cc1"
recorded_measurement = 6

[[record]]
compound = "COC(=O)C(C)(C)Cc1c(SC(C)(C)C)c2cc(C(C)C)ccc2n1Cc1ccc(Cl)cc1"
recorded_measurement = -9

[[record]]
compound = "O=C(CN1C(=O)CC1S(=O)(=O)Cc1ccco1)NCCCCCCc1ccc(F)cc1 (centres undefined)"
recorded_measurement = -2

[[record]]
compound = "CCC(CC)n1cc2c(ccc3nc(N)nc(N)c32)n1"
recorded_measurement = 61

[[record]]
compound = "Cc1cccc(Nc2nc3nonc3nc2Nc2cccc(Cl)c2Cl)c1C"
recorded_measurement = 88

[[record]]
compound = "CC1(C)N=C(N)N=C(N)N1OCCCO"
recorded_measurement = 27

